Quick list: polymerase ribozyme fitness (log ratio) per entry.
B1: TPR 5TU (parent)
chain: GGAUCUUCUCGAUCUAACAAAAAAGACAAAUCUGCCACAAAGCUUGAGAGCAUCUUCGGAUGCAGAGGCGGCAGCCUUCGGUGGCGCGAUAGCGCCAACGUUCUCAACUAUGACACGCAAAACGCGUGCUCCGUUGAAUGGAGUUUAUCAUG

# Variants of: B1
# experimentSummary: polymerase ribozyme fitness, log enrichment relative to wild type (log ratio); higher = more active; in vitro selection for triplet polymerase activity
This sample holds only a part of the variants without activity.
Give the figure only, with no unit attached.

INSERT INTO measurements (mutationspec, experimentalvalue) VALUES
  ('U104G U134G G143A', -3.69);

# variant G11C A91U ; its polymerase ribozyme fitness (log ratio) = -4.11

# variant A47G C96U G124C ; its polymerase ribozyme fitness (log ratio) = -1.06

# variant A16U G84U G86U C93G U144C ; its polymerase ribozyme fitness (log ratio) = -3.51

# variant G117A C123A A150G ; its polymerase ribozyme fitness (log ratio) = -1.18
